SYSTEM UNDER TEST: Histone deacetylase 1 (Homo sapiens)
Sequence (Q13547 whole entry): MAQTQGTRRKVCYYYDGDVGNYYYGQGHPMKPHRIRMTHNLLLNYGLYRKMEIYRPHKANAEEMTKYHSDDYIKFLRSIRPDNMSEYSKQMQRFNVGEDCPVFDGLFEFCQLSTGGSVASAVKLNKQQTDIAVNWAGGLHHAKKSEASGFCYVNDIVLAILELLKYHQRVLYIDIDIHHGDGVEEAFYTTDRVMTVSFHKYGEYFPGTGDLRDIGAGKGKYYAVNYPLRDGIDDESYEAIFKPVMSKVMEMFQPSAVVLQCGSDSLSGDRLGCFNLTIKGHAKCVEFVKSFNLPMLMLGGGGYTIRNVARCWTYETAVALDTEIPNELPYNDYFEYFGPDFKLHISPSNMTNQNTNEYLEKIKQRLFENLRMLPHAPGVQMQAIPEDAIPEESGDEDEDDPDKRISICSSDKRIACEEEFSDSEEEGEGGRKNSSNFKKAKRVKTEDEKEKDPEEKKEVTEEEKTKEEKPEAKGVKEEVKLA
PROTOCOL TEXT: Inhibition of HDAC1 (unknown origin)
RECORDED ENDPOINT: IC50 (nM)
One number for each entry, in nM.

Form field: IC50 recorded for `O=C(NO)c1cnc(NC2(c3ccccc3)CCC(F)(F)CC2)nc1` with Histone deacetylase 1 (Homo sapiens) (enter value)
780

* * *

SYSTEM UNDER TEST: UniProt:Q9UBN7
PROTOCOL TEXT: Inhibition of HDAC6 (unknown origin) using acetyl-lysine tripeptide as substrate preincubated for 24 hrs followed by substrate addition and measured after 30 mins by microtiter plate reader analysis
RECORDED ENDPOINT: IC50 (nM)
One number for each entry, in nM.

Which IC50 is reported for this compound? `O=C(NO)c1cnc(NC2(c3ccccc3)CCC(F)(F)CC2)nc1`
3

* * *

SYSTEM UNDER TEST: Protein deacetylase HDAC6 (Homo sapiens, UniProt Q9UBN7)
Sequence (Q9UBN7 whole entry): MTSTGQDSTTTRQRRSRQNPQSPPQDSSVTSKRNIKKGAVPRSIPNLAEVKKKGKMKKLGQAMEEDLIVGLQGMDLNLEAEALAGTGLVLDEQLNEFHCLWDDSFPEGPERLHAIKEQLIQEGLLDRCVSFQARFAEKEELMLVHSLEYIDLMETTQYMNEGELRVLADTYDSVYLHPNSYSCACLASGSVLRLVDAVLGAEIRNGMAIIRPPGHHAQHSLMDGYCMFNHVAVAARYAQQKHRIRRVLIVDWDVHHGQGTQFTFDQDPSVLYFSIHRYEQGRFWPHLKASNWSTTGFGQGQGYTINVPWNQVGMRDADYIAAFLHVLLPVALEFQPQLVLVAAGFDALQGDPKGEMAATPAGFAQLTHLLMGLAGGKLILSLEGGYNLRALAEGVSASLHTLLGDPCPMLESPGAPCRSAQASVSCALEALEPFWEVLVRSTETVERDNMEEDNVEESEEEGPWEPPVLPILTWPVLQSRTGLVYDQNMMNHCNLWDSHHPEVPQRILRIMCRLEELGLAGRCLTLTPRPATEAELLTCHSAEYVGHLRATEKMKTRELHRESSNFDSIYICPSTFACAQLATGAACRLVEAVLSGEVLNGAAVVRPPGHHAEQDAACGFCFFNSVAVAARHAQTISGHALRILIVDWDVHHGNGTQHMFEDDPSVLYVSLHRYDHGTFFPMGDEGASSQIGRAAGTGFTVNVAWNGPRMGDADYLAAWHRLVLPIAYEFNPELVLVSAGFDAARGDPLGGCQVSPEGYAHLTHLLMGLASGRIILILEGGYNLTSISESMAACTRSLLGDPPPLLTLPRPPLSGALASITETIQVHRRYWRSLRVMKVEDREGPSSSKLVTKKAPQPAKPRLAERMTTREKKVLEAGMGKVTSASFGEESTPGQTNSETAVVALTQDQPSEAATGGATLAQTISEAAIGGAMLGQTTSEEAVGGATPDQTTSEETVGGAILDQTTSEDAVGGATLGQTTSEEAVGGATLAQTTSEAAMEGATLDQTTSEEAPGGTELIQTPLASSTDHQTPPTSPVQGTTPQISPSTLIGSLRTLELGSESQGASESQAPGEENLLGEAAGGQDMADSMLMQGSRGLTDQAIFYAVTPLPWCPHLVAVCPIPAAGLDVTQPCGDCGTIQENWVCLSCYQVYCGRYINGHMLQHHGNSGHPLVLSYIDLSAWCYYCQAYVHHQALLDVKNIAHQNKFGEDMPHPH
PROTOCOL TEXT: Inhibition of human HDAC6 (unknown origin)
RECORDED ENDPOINT: pIC50
Answers are plain numbers, as −log10 of the molar value.

Which measured pIC50 value corresponds to `NCCCNCCCCCC(=O)C(F)(F)F` ?
5.85
